- Tested on: MDA-MB231
- Format: cell-based, human
- MEASUREMENT_SETUP: 3 h
Positions of bridges follow the written chain, without caps; N, C: chain ends. Residues, ends and D or L forms follow the SMILES beside them.
# IC50 per record follows

# COMPOUND, MEASURED_RESULT
data = [
    ("CC(=O)N[C@H]1CSSC[C@@H](C(N)=O)NC(=O)[C@H](Cc2c[nH]cn2)NC(=O)[C@H](C)NC(=O)[C@H](C(C)C)NC1=O [N—Ac—CVAHC—NH2] (Ac-CVAHC-NH2; disulfide 1-5)", "> 100 µM"),
    ("CC(=O)N[C@H]1CSSC[C@@H](C(N)=O)NC(=O)[C@H](CO)NC(=O)[C@H](CO)NC(=O)[C@H](C(C)C)NC(=O)[C@H](C)NC(=O)[C@H](Cc2c[nH]cn2)NC(=O)[C@H](CO)NC1=O (Ac-CSHAVSSC-NH2; disulfide 1-8 (inferred))", "76 µM"),
]

We now examine a further compound.
Exercise: State the recorded IC50 for this entry: CC(=O)N[C@H]1CSSC[C@@H](C(N)=O)NC(=O)[C@H](CC(=O)O)NC(=O)[C@H](C(C)C)NC(=O)[C@H](C)NC(=O)[C@H](Cc2c[nH]cn2)NC(=O)[C@H](C)NC1=O [N—Ac—CAHAVDC—NH2, N-Ac-Cys-Ala-His-Ala-Val-Asp-Cys-NH2] (Ac-CAHAVDC-NH2; disulfide 1-7)
Solution: > 100 µM

----------
- System: IAFp2
- Assay type: cell-based, human
- MEASUREMENT_SETUP: 3 h
pIC50: −log10 of the molar value. Positions of bridges follow the written chain, without caps; N, C: chain ends. Residues, ends and D or L forms follow the SMILES beside them.
ENDPOINT_NAME: pIC50

Illustrative cases are given below, each with its answer.
# COMPOUND, ASSAY_TARGET, pIC50
measured = [
    ("CC[C@H](C)[C@@H]1NC(=O)[C@H](CC(=O)O)NC(=O)[C@H](C(C)C)NC(=O)[C@H](C)NC(=O)[C@H](Cc2c[nH]cn2)NC(=O)[C@H](C)NC(=O)[C@@H](N)CSSC[C@@H](C(N)=O)NC1=O (H-CAHAVDIC-NH2; disulfide 1-8)", "IAFp2", "< 4.00"),
    ("CC(=O)N[C@H]1CSSC[C@@H](C(N)=O)NC(=O)[C@H](CO)NC(=O)[C@H](CO)NC(=O)[C@H](C(C)C)NC(=O)[C@H](C)NC(=O)[C@H](Cc2c[nH]cn2)NC(=O)[C@H](CO)NC1=O (Ac-CSHAVSSC-NH2; disulfide 1-8 (inferred))", "IAFp2", "< 4.00"),
    ("CC(C)[C@@H]1NC(=O)CNC(=O)[C@H](Cc2c[nH]cn2)NC(=O)[C@H](C)NC(=O)[C@@H](N)CSSC[C@@H](C(N)=O)NC(=O)[C@H](CC(=O)O)NC1=O [H—CAHGVDC—NH2] (H-CAHGVDC-NH2; disulfide 1-7)", "IAFp2", "< 4.00"),
    ("CC(=O)N[C@H]1CSSC[C@@H](C(N)=O)NC(=O)[C@H](CO)NC(=O)[C@H](C(C)C)NC(=O)CNC(=O)[C@H](Cc2c[nH]cn2)NC1=O [N—Ac—CHGVSC—NH2] (Ac-CHGVSC-NH2; disulfide 1-6)", "IAFp2", "< 4.00"),
]

Exercise: State the recorded pIC50 for this entry: CC[C@H](C)[C@@H]1NC(=O)[C@H](CC(=O)O)NC(=O)[C@H](C(C)C)NC(=O)[C@H](C)NC(=O)[C@H](Cc2c[nH]cn2)NC(=O)[C@H](C)NC(=O)[C@@H](NC(C)=O)CSSC[C@@H](C(N)=O)NC1=O (Ac-CAHAVDIC-NH2; disulfide 1-8)
Solution: < 4.00

Exercise: State the recorded pIC50 for this entry: CC(=O)N[C@H]1CSSC[C@@H](C(N)=O)NC(=O)[C@H](C(C)C)NC(=O)[C@H](C)NC(=O)[C@H](Cc2c[nH]cn2)NC(=O)[C@H](CO)NC1=O [N—Ac—CSHAVC—NH2, N-Ac-Cys-Ser-His-Ala-Val-Cys-NH2] (Ac-CSHAVC-NH2; disulfide 1-6)
Solution: < 4.00
